system under test: human kappa opioid receptor (hKOR) (Homo sapiens)
Sequence (P41145 whole entry): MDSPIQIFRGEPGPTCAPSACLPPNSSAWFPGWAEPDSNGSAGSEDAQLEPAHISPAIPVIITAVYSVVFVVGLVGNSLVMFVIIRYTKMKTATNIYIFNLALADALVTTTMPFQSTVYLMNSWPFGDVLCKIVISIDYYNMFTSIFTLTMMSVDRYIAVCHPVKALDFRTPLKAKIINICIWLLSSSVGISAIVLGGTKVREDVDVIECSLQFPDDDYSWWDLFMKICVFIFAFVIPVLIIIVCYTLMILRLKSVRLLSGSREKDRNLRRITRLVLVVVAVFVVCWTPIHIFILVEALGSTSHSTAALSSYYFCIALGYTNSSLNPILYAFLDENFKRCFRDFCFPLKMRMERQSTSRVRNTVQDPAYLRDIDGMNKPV
assay explanation: cell-based
Square brackets hold non-standard residues; d marks the D form. Peptide text beside a SMILES is read from it. * marks the point of attachment. Piperidinyl(4-(1-Pro-OH)) = O=C(O)[C@@H]1CCCN1C1CCN(*)CC1; d(hArg) = N=C(N)NCCCC[C@@H](N)C(=O)O; dAgp = N=C(N)NC[C@@H](N)C(=O)O; Morpholide = C1CN(*)CCO1; Inp = O=C(O)C1CCNCC1
Sorting guide: entries reporting EC50 beneath 0.07 nM go in the 1.0 pile, the rest go in the 0.0 pile.

A selection of reference data follows.
molecule: CC(C)C[C@@H](NC(=O)[C@@H](Cc1ccccc1)NC(=O)[C@H](N)Cc1ccccc1)C(=O)N[C@H](CNC(=N)N)C(=O)N1CCC(N2CCC[C@H]2C(=O)O)CC1 [Compound (14)] (H-[dF][dF][dL][dAgp]-{Piperidinyl(4-(1-Pro-OH))})
category label: 0.0
--
molecule: CC(C)C[C@@H](NC(=O)[C@@H](Cc1ccccc1)NC(=O)[C@H](N)Cc1ccccc1)C(=O)N[C@H](CCCCN)C(=O)N1CCC(N)(C(=O)O)CC1 [Compound (2)]
category label: 0.0
--
molecule: CC(C)C[C@@H](NC(=O)[C@@H](Cc1ccccc1)NC(=O)[C@H](N)Cc1ccccc1)C(=O)N[C@H](CCCCN)C(=O)N1CCC(C(=O)N2CCOCC2)CC1 [Compound (29)] (H-[dF][dF][dL][dK][Inp]-Morpholide)
category label: 1.0

EC50 strictly < 0.07 nM for this molecule? CNCCCC[C@@H](NC(=O)[C@@H](CC(C)C)NC(=O)[C@@H](Cc1ccccc1)NC(=O)[C@H](N)Cc1ccccc1)C(=O)N1CCCN(C(=N)N)CC1 [Compound (1)]
0.0

EC50 strictly < 0.07 nM for this molecule? CC(C)C[C@@H](NC(=O)[C@@H](Cc1ccccc1)NC(=O)[C@H](N)Cc1ccccc1)C(=O)N[C@H](CCCN)C(=O)N1CCC(CCCC(=O)O)CC1 [Compound (48)]
0.0

EC50 strictly < 0.07 nM for this molecule? CC(C)C[C@@H](NC(=O)[C@@H](Cc1ccccc1)NC(=O)[C@H](N)Cc1ccccc1)C(=O)N[C@H](CCCCNC(=N)N)C(=O)N1CCC(N2CCC[C@H]2C(=O)O)CC1 [Compound (5)] (H-[dF][dF][dL][d(hArg)]-{Piperidinyl(4-(1-Pro-OH))})
0.0

====

system under test: mouse kappa opioid receptor (mKOR) (Mus musculus, UniProt P33534)
Construct: Stimulation of Endogenous Mouse Kappa-Opioid Receptor in R1.G1 Cells
Sequence (P33534 whole entry): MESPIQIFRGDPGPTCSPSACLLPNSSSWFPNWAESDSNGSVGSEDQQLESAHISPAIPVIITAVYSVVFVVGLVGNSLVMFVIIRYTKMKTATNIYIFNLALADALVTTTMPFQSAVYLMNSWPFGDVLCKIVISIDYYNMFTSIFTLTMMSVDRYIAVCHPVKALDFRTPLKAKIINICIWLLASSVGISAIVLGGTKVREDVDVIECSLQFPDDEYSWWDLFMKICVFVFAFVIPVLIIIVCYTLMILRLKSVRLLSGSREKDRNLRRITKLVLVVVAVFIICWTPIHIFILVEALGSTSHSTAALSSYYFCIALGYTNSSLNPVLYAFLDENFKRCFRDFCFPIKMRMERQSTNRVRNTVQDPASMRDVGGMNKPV
assay explanation: cell-based
Square brackets hold non-standard residues; d marks the D form. Peptide text beside a SMILES is read from it. * marks the point of attachment. Homopiperazine(4-amidino) = N=C(N)N1CCCN(*)CC1; dAgb = N=C(N)NCC[C@@H](N)C(=O)O
Kindly supply the reported EC50 values for the records listed here.
Give bare numbers, in nM.

Consider the reported EC50 for these molecules:
molecule: CC(C)C[C@@H](NC(=O)[C@@H](Cc1ccccc1)NC(=O)[C@H](N)Cc1ccccc1)C(=O)N[C@H](CCCN)C(=O)N1CCC(CCCC(=O)O)CC1
val: 0.092
//
molecule: CCN1CCCN(C(=O)[C@@H](CCCN)NC(=O)[C@@H](CC(C)C)NC(=O)[C@@H](Cc2ccccc2)NC(=O)[C@H](N)Cc2ccccc2)CC1
val: 0.049
//
molecule: CC(C)C[C@@H](NC(=O)[C@@H](Cc1ccccc1)NC(=O)[C@H](N)Cc1ccccc1)C(=O)N[C@H](CCCCN)C(=O)NCc1ccc2[nH]c(=O)[nH]c2c1
val: 0.072
//
molecule: CC(C)C[C@@H](NC(=O)[C@@H](Cc1ccccc1)NC(=O)[C@H](N)Cc1ccccc1)C(=O)N[C@H](CCCN)C(=O)N1CCCN(C2=NCCN2)CC1
val: 0.056

Which value of EC50 has been reported for CC(C)C[C@@H](NC(=O)[C@@H](Cc1ccccc1)NC(=O)[C@H](N)Cc1ccccc1)C(=O)N[C@H](CCNC(=N)N)C(=O)N1CCCN(C(=N)N)CC1 [Compound (23)] (H-[dF][dF][dL][dAgb]-{Homopiperazine(4-amidino)}) in the records?
0.091
